Test system: Malme-3M
Experiment: NCI tumour cell line growth inhibition, 48 h
Activity calls are given as the source filed them. No stated cut-off is given here; in the data, active = GI50 up to about 1.1 µM and inactive = higher.
Classes used: active, inactive

1. CC1C(c2ccccc2O)c2cc3c(cc2OC1N1CCCC1)OCO3 (stereo not given): inactive
2. NC1=NC(=O)C2(NN1)c1ccccc1-c1ccccc12: inactive
3. Cc1cccc(O)c1-c1nnc(CCCCCCCCc2nnc(-c3c(C)cccc3O)n2N)n1N: inactive
4. CCCCCCCCCC[C@H](O)[C@H]1CC[C@@H]([C@@H](O)CC[C@H](O)[C@@H]2CCC(CCCCCCC[C@@H](O)CC3=C[C@H](C)OC3=O)O2)O1 (stereo not given in full): inactive
5. C=C(C)C12OC3(c4ccccc4)OC1C1C4OC4(CO)C(O)C4(O)C(=O)C(C)=CC4C1(O3)C(C)C2OC(=O)/C=C/C=C/c1ccccc1 (stereo not given): active
6. O=C1N2Cc3c4ccc5c3CN3C(=O)N6Cc7c(ccc(c7CN1C6(c1ccccc1)C23c1ccccc1)OCCOCCOc1cc(Br)c(Br)cc1OCCOCCO4)OCCOCCOc1cc(Br)c(Br)cc1OCCOCCO5 (stereo not given): inactive
7. CC1=C(C(=O)Nc2ccc([N+](=O)[O-])cc2)C(c2ccco2)C(C(=O)Nc2ccc([N+](=O)[O-])cc2)=C(C)N1: inactive
8. O=C(O)C1CCc2ccc3ccccc3c2C1c1cccc2ccccc12 (stereo not given): inactive
9. COc1cc2cc[n+](C)c(Cc3ccccc3)c2cc1OC: inactive
10. COc1cc(OC)cc(C(=O)Cc2c(C(=O)c3ccccc3)c3ccccc3n2C(=O)c2ccccc2)c1: inactive
11. Cc1cc(N(CCOS(C)(=O)=O)CCOS(C)(=O)=O)ccc1/C=N/c1ccc(-c2nc(Cc3ccccc3)sc2C)cc1: inactive
12. CCOC(=O)/C(O)=C/c1cc(OC)cc(=O)o1: inactive
13. CCN(CC)C(=S)SNc1ccc(S(N)(=O)=O)cc1: inactive
14. Clc1ccc(OCc2nnc3sc(-c4ccc(-c5ccc(Cl)cc5Cl)o4)nn23)cc1: inactive
15. CC(=O)O[C@]12CCCCCCC1C1(O)C(O)CCC[C@H]12 (stereo not given in full): inactive
16. COc1cc([C@H]2CC(=O)C[C@@H](c3cc(OC)c(OC)c(OC)c3)C23C(=O)c2ccccc2C3=O)cc(OC)c1OC: inactive
17. Nc1ccccc1/C=C\c1ccccc1: inactive
18. CSc1n/c(=N\c2ccccc2)sn1-c1ccccc1: inactive
19. COc1cc2c3c(c1OC)-c1c(ccc4c1OCO4)CC3(C#N)N(C(=O)c1ccccc1)CC2 (stereo not given): inactive
20. COc1ccc2c(c1)c(=O)c1c(NCCCN(C)C)ccc3ncn2c31: inactive
21. COc1ccc(/C=C(\Cl)c2ccc(OC)cc2)cc1: inactive
22. O=C1/C(=C/c2ccncc2)C(n2cccc2)c2c(Br)sc(Br)c21 (stereo not given): inactive
23. O=NN(CCCl)C(=O)NCc1ccc[n+]([O-])c1: inactive
24. O=C(O)c1ccc2c(c1)CC1(C2)Cc2cc3c(cc2C1=O)CCC3 (stereo not given): inactive
25. Nc1nnc2nc(CC(=O)/C=C/c3ccccc3)c(=O)[nH]n12: inactive
26. CC1=COC(C)(C=C(C#N)C#N)CC1 (stereo not given): inactive
27. CC(C(=O)c1ccc(Cl)cc1)/C(=N/NC(=O)NN)C(=O)Nc1cccc(C(F)(F)F)c1 (stereo not given): inactive
28. CCCn1c2c(c3ccccc3c1=O)C(=O)c1ccccc1-2: inactive
29. CC(=O)CCCCn1c(=O)c2c(nc(Br)n2C)n(C)c1=O: inactive
30. Cc1ccccc1OCC(COC(=O)Nc1ccccc1)OC(=O)Nc1ccccc1 (stereo not given): inactive
31. CCOC(=O)C(=O)N1C(C)=C(C(=O)OCC)CC(C(=O)OCC)=C1C: inactive
32. N#Cc1c(Cl)c2cc([N+](=O)[O-])ccc2n2c1nc1ccccc12: inactive
33. C/N=C1\S/C(=N\c2ccc(N(C)C)cc2)N1C: inactive
34. O=C(O)C1=NN(c2ccc(S(=O)(=O)O)cc2)C2(C1)C(Cl)C(=O)N2c1nc2ccccc2s1 (stereo not given): inactive
35. [N-]=[N+]=C(C(=O)CN1CCCC1=O)S(=O)(=O)c1ccccc1: inactive
36. Nc1ccn(C2OC(COP(=O)(O)OCC3OC(n4cc(F)c(=O)[nH]c4=O)CC3O)C(O)C2O)c(=O)n1 (stereo not given): inactive
37. OCCN(C1=NCCN1)/[N+](=C\c1ccccn1)[CH-]c1ccccn1: inactive
38. NS(=O)(=O)c1ccc(NC(=O)COC(=O)c2cccc3c(=O)c4ccccc4[nH]c23)cc1: inactive
39. CCC1(Cl)C(=O)NC(=O)N(C2CC(O)C(CO)O2)C1N=[N+]=[N-] (stereo not given): inactive
40. COc1ccc(N[S+]([O-])c2ccccc2OC)cc1 (stereo not given): inactive
